target: SALL4 ZFC4 G921D (HT-SELEX) (Mus musculus, UniProt Q8BX22 870-940, G921D)
Sequence: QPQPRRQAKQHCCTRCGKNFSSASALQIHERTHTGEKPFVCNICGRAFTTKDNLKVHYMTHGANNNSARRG
test-method-notes: HT-SELEX; high values mean tight binding
cond: protein: recombinant; vector His6-GST; dsDNA, one strand shown
metric-name: binding signal (fold-change vs cycle 0)
Give bare numbers, in fold-change vs cycle 0.

These recorded examples may help you get a feel for the data.
construct-sequence | target | scale-unit | recorded-value
ATTGCC | SALL4 ZFC4 G921D (HT-SELEX) (Mus musculus, UniProt Q8BX22 870-940, G921D) | fold-change vs cycle 0 | 0.699
ACCTTA | SALL4 ZFC4 G921D (HT-SELEX) (Mus musculus, UniProt Q8BX22 870-940, G921D) | fold-change vs cycle 0 | 1.44
AATCGG | SALL4 ZFC4 G921D (HT-SELEX) (Mus musculus, UniProt Q8BX22 870-940, G921D) | fold-change vs cycle 0 | 0.763
CGGTAC | SALL4 ZFC4 G921D (HT-SELEX) (Mus musculus, UniProt Q8BX22 870-940, G921D) | fold-change vs cycle 0 | 0.552
AGGGAT | SALL4 ZFC4 G921D (HT-SELEX) (Mus musculus, UniProt Q8BX22 870-940, G921D) | fold-change vs cycle 0 | 1.07

Working through the 4 sequences below one at a time, give binding signal for each.
1. GGAGAA
2. CACACG
3. CCATTC
4. CACAAC

[0.959, 0.649, 0.938, 0.828]

----------
target: SALL4 ZFC4 WT (HT-SELEX) (Mus musculus, UniProt Q8BX22 870-940)
Sequence: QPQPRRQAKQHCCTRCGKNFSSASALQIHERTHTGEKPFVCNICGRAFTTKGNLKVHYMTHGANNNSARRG
test-method-notes: HT-SELEX; high values mean tight binding
cond: protein: recombinant; vector His6-GST; dsDNA, one strand shown
Exercise: state measured log10 of binding signal for each of the sequences provided.
Quick note: numbers are log10 of binding signal, with fold-change vs cycle 0 as the unit.

These recorded examples may help you get a feel for the data.
construct-sequence | recorded-value
CTTCCC | -0.30
TAAGGA | 0.20
ATCGTC | -0.16

Working through the 7 sequences below one at a time, give log10 of binding signal for each.
1. ACACAC
2. CTCTCA
3. GCTTAC
4. GGGGTA
5. CGTAGC
6. CGTTAC
7. CTTTTA

-0.15
-0.06
-0.11
-0.32
-0.52
-0.09
0.25

Working through the 6 sequences below one at a time, give log10 of binding signal for each.
1. TTGCAA
2. CATCGG
3. ATTTAA
4. ACGATC
5. ACCCCA
6. GCGTAA

1. 0.05
2. -0.44
3. 0.51
4. -0.18
5. -0.33
6. -0.31

Working through the 7 sequences below one at a time, give log10 of binding signal for each.
1. GAAATA
2. ATGAGG
3. GCGAAA
4. ACAAGT
5. CAAATA
6. AGTCAG
7. CCATGC

0.43
-0.04
-0.44
0.09
0.28
-0.09
-0.46

----------
target: SALL4 ZFC4 WT (HT-SELEX) (Mus musculus, UniProt Q8BX22 870-940)
Sequence: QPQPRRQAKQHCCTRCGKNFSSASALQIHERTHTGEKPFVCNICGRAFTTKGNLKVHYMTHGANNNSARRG
test-method-notes: HT-SELEX; high values mean tight binding
cond: protein: recombinant; vector His6-GST; dsDNA, one strand shown
metric-name: binding signal (fold-change vs cycle 0)
One number for each entry, in fold-change vs cycle 0.

construct-sequence | recorded-value
ACAAGA | 1.29
CATGCA | 0.683
TACGCA | 0.51
AAAATC | 1.66
ACGGGA | 0.422

Working through the 7 sequences below one at a time, give binding signal for each.
1. AGAAAA
2. GATGAA
3. CCTCAA
4. ACGAAG
5. CCTTGC
6. AGGTGG
7. AGGTGC

1. 1.83
2. 1.45
3. 0.759
4. 0.736
5. 0.381
6. 0.487
7. 0.324

----------
target: SALL4 ZFC4 R900W (HT-SELEX) (Mus musculus, UniProt Q8BX22 870-940, R900W)
Sequence: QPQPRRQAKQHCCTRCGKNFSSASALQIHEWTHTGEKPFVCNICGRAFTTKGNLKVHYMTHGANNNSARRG
test-method-notes: HT-SELEX; high values mean tight binding
cond: protein: recombinant; vector His6-GST; dsDNA, one strand shown
Labelling: binding signal reported below 0.4 fold-change vs cycle 0 becomes Fulfilled; at or above becomes Not fulfilled.

Previously resolved entries follow.
construct-sequence | category
CAGCAA | Not fulfilled
AAAGAG | Not fulfilled
CGGATA | Not fulfilled
CCGTGA | Not fulfilled
AGGAGC | Not fulfilled

Answer whether the sequence ACCCCC has binding signal strictly less than 0.4 fold-change vs cycle 0
Fulfilled

Would you mind doing GCAATA as well?
Not fulfilled

Would you mind doing TCATGA as well?
Not fulfilled

Would you mind doing GCCGAA as well?
Fulfilled

Would you mind doing GATCAC as well?
Not fulfilled

Would you mind doing TGCCCA as well?
Fulfilled

Would you mind doing ATAACA as well?
Not fulfilled

Would you mind doing CTTTTC as well?
Not fulfilled

Would you mind doing ACCCAC as well?
Not fulfilled

Would you mind doing CCGCGG as well?
Fulfilled

Would you mind doing ATAAGA as well?
Not fulfilled

Would you mind doing GCTGAA as well?
Not fulfilled

Would you mind doing CTGCAC as well?
Fulfilled

Would you mind doing CGTCCA as well?
Fulfilled

Would you mind doing GAGTAA as well?
Not fulfilled

Would you mind doing AACGGG as well?
Not fulfilled

Would you mind doing CCAGGC as well?
Fulfilled

Would you mind doing CCCGAG as well?
Fulfilled

----------
target: SALL4 ZFC4 WT (HT-SELEX) (Mus musculus, UniProt Q8BX22 870-940)
Sequence: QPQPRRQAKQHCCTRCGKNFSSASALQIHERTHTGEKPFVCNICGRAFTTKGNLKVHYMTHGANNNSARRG
test-method-notes: HT-SELEX; high values mean tight binding
cond: protein: recombinant; vector His6-GST; dsDNA, one strand shown
Kindly return class 1 if reported binding signal is no lower than 1 fold-change vs cycle 0; return class 0 if it is lower.

Previously resolved entries follow.
construct-sequence | category
ATAGAG | class 1
ATTGAA | class 1

Check the entry ACTACA : does binding signal equal or exceed 1 fold-change vs cycle 0?
class 1

Would you mind doing CCGTAA as well?
class 0

Would you mind doing CTATAA as well?
class 1

Would you mind doing CACTGC as well?
class 0

Would you mind doing CAACAA as well?
class 1

Would you mind doing CGGGAA as well?
class 0

Would you mind doing AAGTCC as well?
class 0

Would you mind doing AATCGT as well?
class 1

Would you mind doing GCACAA as well?
class 0

Would you mind doing TTCGAA as well?
class 1

----------
target: SALL4 ZFC4 R900W (HT-SELEX) (Mus musculus, UniProt Q8BX22 870-940, R900W)
Sequence: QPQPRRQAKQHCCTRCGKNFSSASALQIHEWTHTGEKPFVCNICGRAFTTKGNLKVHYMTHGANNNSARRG
test-method-notes: HT-SELEX; high values mean tight binding
cond: protein: recombinant; vector His6-GST; dsDNA, one strand shown
Kindly return True if reported binding signal is no lower than 0.7 fold-change vs cycle 0; return False if it is lower.

Previously resolved entries follow.
construct-sequence | category
AATATG | True
AGTGAC | True
AAGCTC | True
GAACGA | True
CACAGA | True
CCTGAA | True
GCGGCA | False
AACGGA | True
CTCCAG | False
ATTAGA | True

Check the entry GCCACC : does binding signal equal or exceed 0.7 fold-change vs cycle 0?
False

Would you mind doing CCTCAG as well?
False

----------
target: SALL4 ZFC4 R900W (HT-SELEX) (Mus musculus, UniProt Q8BX22 870-940, R900W)
Sequence: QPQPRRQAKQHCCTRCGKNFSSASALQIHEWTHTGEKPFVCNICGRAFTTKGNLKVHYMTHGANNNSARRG
test-method-notes: HT-SELEX; high values mean tight binding
cond: protein: recombinant; vector His6-GST; dsDNA, one strand shown
Labelling: binding signal reported below 0.6 fold-change vs cycle 0 becomes YES; at or above becomes NO.

construct-sequence | category
AAGTAG | NO
CGAGAA | NO

Answer whether the sequence GGCGAC has binding signal strictly less than 0.6 fold-change vs cycle 0
YES

Would you mind doing CTCTAC as well?
NO

Would you mind doing AGGGAC as well?
YES

Would you mind doing CCTCGC as well?
YES

Would you mind doing ACGAGT as well?
NO
